I'd appreciate it if you could supply IC50 at 72 h values for the items below.
# assay summary: Antiproliferative activity against mouse BaF3 cells assessed as inhibition of cell proliferation incubated for 72 hrs by CCK-8 assay
# Format: toxicity, cell-based
Answers are plain numbers, in nM.

smiles code: COc1cc(N2CCN(C)CC2)c2cc1Nc1ncc(C)c(n1)Nc1ccc(cc1P(C)(C)=O)OCCCn1cc-2cn1
IC50 at 72 h / nM: 2250

Data point: COc1cc(N2CCC(N3CCN(C)CC3)CC2)ccc1Nc1ncc(Cl)c(Nc2ccccc2P(C)(C)=O)n1 ; IC50 at 72 h = 2380

----------
# Test system: A-431
# assay summary: cells
# measurement conditions: Homo sapiens, A-431, 72 h
# Description: Antiproliferative activity against human A-431 cells harboring wildtype EGFR assessed as inhibition of cell proliferation measured after 72 hrs by SRB assay
readout label: pIC50
Numbers only, as −log10 of the molar value.

Go through the list and state pIC50 for each entry.
1. COc1cc(N2CCN(C)CC2)c2cc1Nc1ncc(C)c(n1)Nc1ccc(cc1P(C)(C)=O)OCCCn1cc-2cn1
2. COc1cc(N2CCOCC2)c2cc1Nc1ncc(C)c(n1)Nc1ccc(cc1P(C)(C)=O)OCCCn1cc-2cn1
3. COc1cc(N(C)CCN(C)C)c2cc1Nc1ncc(C)c(n1)Nc1ccc(cc1P(C)(C)=O)OCCCCC(=O)N2

output:
6.79
6.61
5.36

These data points were gathered from ChEMBL document CHEMBL6127132.
